B1: HDV Ribozyme (parent)
chain: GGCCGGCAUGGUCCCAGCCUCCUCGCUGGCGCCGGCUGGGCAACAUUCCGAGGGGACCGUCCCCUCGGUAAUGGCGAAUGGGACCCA

Variants of: B1
Test: self-cleavage, relative activity (ratio to wild type); higher = more cleavage; co-transcriptional
Label scheme for self-cleavage: low: < 0.2; mid: ≥ 0.2 and < 0.8; high: ≥ 0.8

Take a look at these entries with their results.
| Variant notation | Assigned category |
| --- | --- |
| G11U G50C | mid |
| G53U G82A | mid |
| G11U C58G | mid |
| G35A G50U | mid |
| G54U C58A | high |

Any idea which band C7A C13G is in?
low
